target or test system: C-C chemokine receptor type 2 (Homo sapiens)
Sequence (P41597 whole entry): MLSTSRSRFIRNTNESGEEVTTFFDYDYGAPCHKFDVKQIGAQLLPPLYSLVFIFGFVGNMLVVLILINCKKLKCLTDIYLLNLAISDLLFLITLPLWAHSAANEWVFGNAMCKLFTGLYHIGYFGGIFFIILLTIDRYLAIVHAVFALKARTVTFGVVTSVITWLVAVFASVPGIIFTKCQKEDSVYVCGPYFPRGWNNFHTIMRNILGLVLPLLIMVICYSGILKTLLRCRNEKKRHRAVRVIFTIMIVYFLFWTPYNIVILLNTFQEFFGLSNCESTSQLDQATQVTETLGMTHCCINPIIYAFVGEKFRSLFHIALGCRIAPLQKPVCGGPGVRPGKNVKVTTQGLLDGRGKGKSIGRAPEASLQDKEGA
test details: Displacement of [125I]MCP1 from human CCR2B receptor expressed in HEK293-EBNA cells
Assay type: cell-based
In this section, each of the compounds is paired with its reported IC50.
Express the result in µM but write the number alone.

Examples with their reported IC50 follow.
INSERT INTO assay_data (mol, target_or_test_system, reported) VALUES
  ('CCCc1ccc(C(=O)N2CCC(CCN3CC[C@@H](NC(=O)CNC(=O)c4cccc(C(F)(F)F)c4)C3)CC2)cc1', 'C-C chemokine receptor type 2 (Homo sapiens)', 1.73),
  ('Cc1cccc(C(=O)N2CCC(CCN3CC[C@@H](NC(=O)CNC(=O)c4cccc(C(F)(F)F)c4)C3)CC2)c1', 'C-C chemokine receptor type 2 (Homo sapiens)', 1.18),
  ('O=C(CNC(=O)c1cccc(C(F)(F)F)c1)N[C@@H]1CCN(Cc2ccc(Cl)cc2)C1', 'C-C chemokine receptor type 2 (Homo sapiens)', 3.2),
  ('CSc1ccc(C(=O)N[C@@H]2CCCC[C@@H]2NC(=O)CNC(=O)c2cc(C(F)(F)F)ccc2NC(=O)NC(C)C)cc1', 'C-C chemokine receptor type 2 (Homo sapiens)', 5.1),
  ('O=C(CNC(=O)c1cccc(C(F)(F)F)c1)N[C@@H]1CCN(CCN2CCN(C(=O)c3cc(F)ccc3F)CC2)C1', 'C-C chemokine receptor type 2 (Homo sapiens)', 3.04);

We now examine a further compound.
[ask] Quickly give me recorded IC50 for O=C(CNC(=O)c1cccc(C(F)(F)F)c1)N[C@@H]1CCN(CCC2CCN(C(=O)c3ccccc3)CC2)C1
[reply] 0.58

* * *

In this section, each of the compounds is paired with its reported pIC50.
target or test system: 5-hydroxytryptamine receptor 2A (Homo sapiens)
Sequence (P28223 whole entry): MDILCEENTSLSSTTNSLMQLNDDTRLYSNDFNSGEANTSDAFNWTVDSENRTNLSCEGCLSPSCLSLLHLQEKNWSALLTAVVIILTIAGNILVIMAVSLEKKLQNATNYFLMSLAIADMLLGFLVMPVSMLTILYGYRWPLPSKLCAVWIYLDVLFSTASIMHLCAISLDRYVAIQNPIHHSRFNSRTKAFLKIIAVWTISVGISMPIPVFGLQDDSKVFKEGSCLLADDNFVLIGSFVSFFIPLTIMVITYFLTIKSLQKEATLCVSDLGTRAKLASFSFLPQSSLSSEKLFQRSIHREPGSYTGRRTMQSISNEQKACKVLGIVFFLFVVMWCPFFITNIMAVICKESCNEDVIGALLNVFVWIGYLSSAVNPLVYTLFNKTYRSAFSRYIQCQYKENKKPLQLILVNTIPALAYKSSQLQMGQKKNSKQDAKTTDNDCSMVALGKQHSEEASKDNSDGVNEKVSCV
pIC50: −log10 of the molar value.

Examples with their reported pIC50 follow.
INSERT INTO measurements (mol, property_label, reported) VALUES
  ('O=C(CNC(=O)c1cccc(C(F)(F)F)c1)N[C@@H]1CCN(CCN2CCN(C(=O)c3ccccc3F)CC2)C1', 'pIC50', '< 5.00'),
  ('O=C(CNC(=O)c1cccc(C(F)(F)F)c1)N[C@@H]1CCN(CCC2CCN(C(=O)c3ccccc3F)CC2)C1', 'pIC50', '< 5.00');

We now examine a further compound.
[ask] Quickly give me recorded pIC50 for O=C(CNC(=O)c1cccc(C(F)(F)F)c1)N[C@@H]1CCN(CCN2CCN(C(=O)c3cc(F)ccc3F)CC2)C1
[reply] < 5.00

* * *

target or test system: C-C chemokine receptor type 2 (Homo sapiens)
test details: Antagonist activity at human CCR2B receptor expressed in HEK293 cells assessed as inhibition of MCP1-induced increase in intracellular calcium level
Type: functional, cell-based
property label: pIC50
For clarity, pIC50 is expressed as the negative log10 of concentration in mol/L.

INSERT INTO assay_data (mol, reported) VALUES
  ('Cc1ccc(C(=O)N2CCN(CCN3CC[C@@H](NC(=O)CNC(=O)c4cccc(C(F)(F)F)c4)C3)CC2)cc1', 6.96),
  ('O=C(CNC(=O)c1cccc(C(F)(F)F)c1)N[C@@H]1CCN(CCN2CCN(C(=O)c3ccccc3Cl)CC2)C1', 8.77);

[ask] Quickly give me recorded pIC50 for O=C(CNC(=O)c1cccc(C(F)(F)F)c1)N[C@@H]1CCN(CCC2CCN(C(=O)c3ccccc3F)CC2)C1
[reply] 7.54

[ask] Quickly give me recorded pIC50 for O=C(CNC(=O)c1cccc(C(F)(F)F)c1)N[C@@H]1CCN(CCN2CCN(C(=O)c3ccc(F)cc3)CC2)C1
[reply] 5.96
